Catalogue of self-splicing fitness (ln) values
# run description: self-splicing fitness, log relative to wild type (ln ratio); higher = more splicing; Tetrahymena group I intron in knt gene, E. coli kanamycin selection, DiMSum; sequences stand for … in CUCUCU…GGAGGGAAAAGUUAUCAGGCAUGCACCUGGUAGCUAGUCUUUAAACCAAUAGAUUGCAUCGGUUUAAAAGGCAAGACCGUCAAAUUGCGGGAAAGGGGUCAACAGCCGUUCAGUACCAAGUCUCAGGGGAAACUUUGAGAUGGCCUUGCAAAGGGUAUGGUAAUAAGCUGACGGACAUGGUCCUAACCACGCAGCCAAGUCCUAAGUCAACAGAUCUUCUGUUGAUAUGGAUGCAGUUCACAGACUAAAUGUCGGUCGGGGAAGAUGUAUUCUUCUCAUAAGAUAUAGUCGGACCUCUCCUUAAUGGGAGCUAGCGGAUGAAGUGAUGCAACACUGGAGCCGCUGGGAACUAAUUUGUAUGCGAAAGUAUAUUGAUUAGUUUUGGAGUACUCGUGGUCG;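 also: selection with 25 µg/mL kanamycin versus none on LB agar overnight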
# assay context: 37 °C
measurement kind: self-splicing fitness (ln)

1) AAUGAGCAAUAUUACGGCUG -1.47
2) UAAGAGCAAUAUUACGUUCU -1.55
3) CUGGAGCAAUAUUACGACUU -2.38
4) GGGCAGCAAUAUUACGGUAG -1.34
5) CUAAAGCAAUAUUACGGAAA -2.44
6) GCCCAGCAAUAUUACGUGUU -0.217
7) GAACAGCAAUAUUACGACGA 0.265
8) UAGAAGCAAUAUUACGCCCA 0.21
9) GCUGAGCAAUAUUACGUAAC -1.6
10) ACCGAGCAAUAUUACGUUGA -2.59
11) UGCUAGCAAUAUUACGGCCU 0.383
12) CCGAAGCAAUAUUACGGGUG -0.639
13) CUUAAGCAAUAUUACGGUCA -3.15
14) UCACAGCAAUAUUACGCUGG -2.94
15) CGGUAGCAAUAUUACGAUAU -1.33
16) GGAGAGCAAUAUUACGCAUG -0.0425
